Where do the numbers come from? From PubChem BioAssay (NCI).

- Tested on: U251 CNS
- TEST_METHOD_NOTES: NCI-60 one-dose screen, 48 h (100 = growth as untreated, 0 = no growth, -100 = all killed)
- CONDITION_SUMMARY: 10 µM unless noted
This is part of a sample that, as a whole, favours compounds with a hit. Of some 83,000 tested, about 20% had one in any assay.
Mark Fulfilled for growth under 20%, Not fulfilled if at or over.

Known results for compounds:
O=C(/C=C/c1cc2ccccc2[nH]c1=O)/C=C/c1cc2ccccc2[nH]c1=O : Fulfilled
CS(=O)(=O)c1ccc(-c2cnc3ccc(-c4cccc(S(C)(=O)=O)c4)nn23)cc1 : Not fulfilled
COc1ccc(C2Nc3ccccc3-n3cccc32)cc1 (stereo not given) : Not fulfilled
O=C(Nc1ccc(CN2CCOCC2)cc1)c1[nH]ncc1Nc1ncnc2sccc12 : Fulfilled
CC[C@@H](C)OC(=O)c1nn(C(C)=O)c2ccccc12 : Not fulfilled
C=C1CCC2C3(C)COC(c4ccc(SC)cc4)OC3CCC2(C)C1C/C=C1/C(=O)OCC1O (stereo not given) : Not fulfilled

# input is_below(growth, 20%) for Nc1ccc2c(c1)C(=O)NC2=O ?
# output Not fulfilled

# input Check if growth falls below 20% for O=C(CN1CCN(c2cc3c(cc2F)c(=O)c(C(=O)O)cn3C2CC2)CC1)Nc1nc(-c2ccccc2)cs1 .
# output Not fulfilled

# input Say whether its growth is strictly beneath 20%. Entry: Nc1nc2c(c3ncccc13)C(c1cccc(Br)c1)Cc1ncccc1-2 (stereo not given)
# output Fulfilled
